Task for the reader: assign each of the following compounds its reported Fu.
test: Fraction unbound in rat plasma; type: ADME, cell-free

Can you look up the measured Fu of COc1ccc(CNc2nn(C)c3c2sc2nnc(C)c(C)c23)cc1 for me?
0.02

Moving on to Cc1nc2sc3c(NCc4ccco4)nn(C)c3c2c(C)c1Cl
< 0.001

Moving on to COc1ccc(CNc2n[nH]c3c2sc2nc(C)cc(C)c23)cc1
< 0.002

Moving on to Cc1nnc2sc3c(NCc4ccc(S(C)(=O)=O)c(F)c4)nn(C)c3c2c1C
0.05

Moving on to Cc1nc2sc3c(NCC4CC4)nn(C)c3c2c(C)c1Cl
< 0.001

###

Target: Muscarinic acetylcholine receptor M4 (Homo sapiens, UniProt P08173)
Sequence (P08173 whole entry): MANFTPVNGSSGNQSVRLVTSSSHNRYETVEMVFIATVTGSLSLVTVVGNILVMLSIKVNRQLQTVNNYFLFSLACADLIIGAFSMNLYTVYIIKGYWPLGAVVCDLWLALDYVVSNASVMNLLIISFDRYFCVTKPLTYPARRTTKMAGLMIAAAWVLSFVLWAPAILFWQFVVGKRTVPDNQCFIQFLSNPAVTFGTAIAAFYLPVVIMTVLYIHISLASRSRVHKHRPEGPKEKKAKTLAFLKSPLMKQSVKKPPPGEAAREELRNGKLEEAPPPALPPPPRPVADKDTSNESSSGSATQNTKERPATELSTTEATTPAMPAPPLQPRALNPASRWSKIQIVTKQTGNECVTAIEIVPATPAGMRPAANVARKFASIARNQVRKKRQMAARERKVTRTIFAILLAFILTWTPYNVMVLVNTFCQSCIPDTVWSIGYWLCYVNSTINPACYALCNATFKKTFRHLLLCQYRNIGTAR
Assay: Positive allosteric modulation of Gqi5-fused human M4 AChR assessed as increase in acetylcholine-induced calcium mobilization
READOUT_TYPE: log10 EC50 (log10 of the value in nM)
Form field - Quantity: EC50; Unit: nM; Scale: log10

Can you look up the measured log10 EC50 of CCc1c(C(=O)NCc2ccc(S(C)(=O)=O)cc2)sc2nc(C)cc(C)c12 for me?
3.43

Moving on to COc1ccc(CNc2n[nH]c3c2sc2nc(C)cc(C)c23)cc1
3.34

Moving on to COc1ccc(CNc2nn(C)c3c2sc2nnc(C)c(C)c23)cc1
1.60

Moving on to Cc1nnc2sc3c(NCC4CCCO4)nn(C)c3c2c1C (stereo unspecified)
2.26

Moving on to Cc1nnc2sc3c(NCC4CC4)nn(C)c3c2c1C
2.79

Moving on to COc1ccc(CNC(=O)c2cc3c(C)c(C)nnc3s2)cc1F
3.18

Moving on to Cc1nnc2sc3c(NCc4ccc5c(c4)OCCO5)nn(C)c3c2c1C
1.78

###

target: Muscarinic acetylcholine receptor M4 (Homo sapiens); assay: Positive allosteric modulation of Gqi5-fused human M4 AChR assessed as increase in acetylcholine-induced calcium mobilization relative to acetylcholine alone; format: functional
Task for the reader: assign each of the following compounds its reported Emax.
Provide the reading as a plain figure in %.

Can you look up the measured Emax of Cc1cc(C)c2c(C)c(C(=O)NCc3ccc4c(c3)CCO4)sc2n1 for me?
50

Moving on to Cc1nnc2sc3c(NCc4ccc(S(C)(=O)=O)c(F)c4)nn(C)c3c2c1C
58

Moving on to CCc1c(C(=O)NCc2ccc(OC)c(F)c2)sc2nnc(C)c(C)c12
73

Moving on to Cc1nnc2sc3c(NCc4ccc5c(c4)OCCO5)nn(C)c3c2c1C
91

Moving on to COc1ccc(CNc2nn(C)c3c2sc2nc(C)c(Cl)c(C)c23)cc1
51

Moving on to CSc1ccc(CNC(=O)c2sc3nc(C)cc(C)c3c2C)cc1
45

Attribution: ChEMBL document CHEMBL4371085
